Taken from ChEMBL document CHEMBL5131462.

# measurement_description: Activation of human RNase L using [CY5]-r(C11-UUC7)- [BHQ2] as substrate assessed as cleavage of fluorescent substrate by measuring increase in fluorescence incubated for 30 mins by FRET assay
Can you tell me EC50 for the items I'm about to list?
The answer is to be given in nM; state only the numeric part.

Incoming: Which measured EC50 value corresponds to "Nc1ncnc2c1ncn2[C@@H]1O[C@H](COP(=O)(O)O[C@@H]2[C@H](O)[C@@H](COP(=O)(O)O[C@@H]3[C@H](O)[C@@H](CNC(=O)P(=O)(O)O)O[C@H]3n3cnc4c(N)ncnc43)O[C@H]2n2cnc3c(N)ncnc32)[C@@H](O)[C@H]1O" ?
Outgoing: 20.9

Incoming: Now consider Nc1ncnc2c1ncn2[C@@H]1O[C@H](COP(=O)(O)O[C@@H]2[C@H](O)[C@@H](COP(=O)(O)O[C@@H]3[C@H](O)[C@@H](COCC(O)P(=O)(O)O)O[C@H]3n3cnc4c(N)ncnc43)O[C@H]2n2cnc3c(N)ncnc32)[C@@H](O)[C@H]1O (stereo partly drawn) .
Outgoing: 55.2

Incoming: Now consider "Nc1ncnc2c1ncn2[C@@H]1O[C@H](COP(=O)(O)O[C@@H]2[C@H](O)[C@@H](COP(=O)(O)O[C@@H]3[C@H](O)[C@@H](OCP(=O)(O)O)O[C@H]3n3cnc4c(N)ncnc43)O[C@H]2n2cnc3c(N)ncnc32)[C@@H](O)[C@H]1O" .
Outgoing: 18.9

* * *

# measurement_description: Activation of human RNase L using [CY5]-r(C11-UUC7)- [BHQ2] as substrate assessed as cleavage of fluorescent substrate by measuring increase in fluorescence incubated for 30 mins by FRET assay
experimental_endpoint: pEC50
In plain terms, pEC50 is the concentration in mol/L turned into minus its base-10 logarithm.

Incoming: Which measured pEC50 value corresponds to "Nc1ncnc2c1ncn2[C@@H]1O[C@H](COP(=O)(O)O[C@@H]2[C@H](O)[C@@H](COP(=O)(O)O[C@@H]3[C@H](O)[C@@H](COP(=O)(O)O)O[C@H]3n3cnc4c(N)ncnc43)O[C@H]2n2cnc3c(N)ncnc32)[C@@H](O)[C@H]1O" ?
Outgoing: 7.82

Incoming: Now consider "Nc1ncnc2c1ncn2[C@@H]1O[C@H](COP(=O)(O)O[C@@H]2[C@H](O)[C@@H](COP(=O)(O)O[C@@H]3[C@H](O)[C@@H](COCP(=O)(O)O)O[C@H]3n3cnc4c(N)ncnc43)O[C@H]2n2cnc3c(N)ncnc32)[C@@H](O)[C@H]1O" .
Outgoing: 7.34

Incoming: Now consider "C[C@]1(OCP(=O)(O)O)O[C@@H](n2cnc3c(N)ncnc32)[C@H](OP(=O)(O)OC[C@H]2O[C@@H](n3cnc4c(N)ncnc43)[C@H](OP(=O)(O)OC[C@H]3O[C@@H](n4cnc5c(N)ncnc54)[C@H](O)[C@@H]3O)[C@@H]2O)[C@@H]1O" .
Outgoing: 7.45

Incoming: Now consider "Nc1ncnc2c1ncn2[C@@H]1O[C@H](COP(=O)(O)O[C@@H]2[C@H](O)[C@@H](COP(=O)(O)O[C@@H]3[C@H](O)[C@@H](CSCP(=O)(O)O)O[C@H]3n3cnc4c(N)ncnc43)O[C@H]2n2cnc3c(N)ncnc32)[C@@H](O)[C@H]1O" .
Outgoing: 7.47
